Target: human oxytocin receptor (Homo sapiens, UniProt P30559)
Construct: host or cells: CHO cells (pcDNA3.1 vector)
Sequence (P30559 1-389): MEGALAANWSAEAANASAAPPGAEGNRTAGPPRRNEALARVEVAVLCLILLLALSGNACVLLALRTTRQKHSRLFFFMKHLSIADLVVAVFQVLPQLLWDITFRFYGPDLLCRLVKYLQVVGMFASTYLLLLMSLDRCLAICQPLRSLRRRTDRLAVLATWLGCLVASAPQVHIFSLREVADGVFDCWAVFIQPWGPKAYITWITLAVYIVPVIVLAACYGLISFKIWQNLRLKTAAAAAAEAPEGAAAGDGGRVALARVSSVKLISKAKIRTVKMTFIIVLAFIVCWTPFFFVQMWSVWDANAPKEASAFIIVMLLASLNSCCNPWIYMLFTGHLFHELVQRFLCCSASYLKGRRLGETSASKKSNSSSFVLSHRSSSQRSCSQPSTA
Experiment: Oxytocin binding in Chinese Hamster Ovary cell membranes expressing human oxytocin receptors
Settings: 100 nM, CHO cell membranes, [3H]oxytocin, values without parentheses, read-out: OT % inhibition @ 100% nM
parameter: inhibition at 0.1 µM (%)

{"molecule": "COc1cc(C(=O)N2Cc3ccc(C(=O)N(C)CCN(C)C)n3Cc3ccccc32)ccc1-c1cccc2ccccc12", "testValue": 90}
{"molecule": "COc1ccccc1-c1ccc(C(=O)N2Cc3ccc(C(=O)N(C)CCCN(C)C)n3Cc3ccccc32)cc1", "testValue": 98}
{"molecule": "Cc1ccccc1-c1ccc(C(=O)N2Cc3ccc(C(=O)NCCC4CCCN4C)n3Cc3ccccc32)cc1 (stereo not shown)", "testValue": 27}
{"molecule": "C=CCN1CCN(C(=O)c2ccc3n2Cc2ccccc2N(C(=O)c2ccc(-c4ccccc4C)c(OC)c2)C3)CC1", "testValue": 87}
{"molecule": "COc1cccc(-c2cc(OC)c(C(=O)N3Cc4ccc(C(=O)N5CCC(N6CCCC6)CC5)n4Cc4ccccc43)cc2Cl)c1", "testValue": 69}
{"molecule": "CN(C)CCN(C)C(=O)c1ccc2n1Cc1ccccc1N(C(=O)c1ccc(-c3cccc4ccccc34)cc1Cl)C2", "testValue": 54}
{"molecule": "COc1cc(C(=O)N2Cc3ccc(C(=O)N(C)CCCN(C)C)n3Cc3ccccc32)ccc1-c1ccccc1C", "testValue": 97}
{"molecule": "Cc1ccccc1-c1ccc(C(=O)N2Cc3ccc(C(=O)NCCC4CCCN4C)n3Cc3ccccc32)cc1C (stereo not shown)", "testValue": 82}
{"molecule": "COc1ccccc1-c1ccc(C(=O)N2Cc3ccc(C(=O)N[C@H]4CN5CCC4CC5)n3Cc3ccccc32)cc1", "testValue": 88}
{"molecule": "Cc1cc(C(=O)N2Cc3ccc(C(=O)N4CCN(CCN5CCOCC5)CC4)n3Cc3ccccc32)ccc1-c1ccccc1C(F)(F)F", "testValue": 82}
{"molecule": "COc1cccc(-c2ccc(C(=O)N3Cc4ccc(C(=O)N5CCN(C(C)C)CC5)n4Cc4ccccc43)cc2OC)c1", "testValue": 69}
{"molecule": "COc1cccc(-c2ccc(C(=O)N3Cc4ccc(C(=O)N(C)CCN(C)C)n4Cc4ccccc43)cc2C)c1", "testValue": 97}
{"molecule": "Cc1cc(C(=O)N2Cc3ccc(C(=O)N[C@@H](Cc4c[nH]cn4)C(N)=O)n3Cc3ccccc32)ccc1-c1ccccc1C(F)(F)F", "testValue": 87}
{"molecule": "Cc1cc(C(=O)N2Cc3ccc(C(=O)NCCC4CCCN4C)n3Cc3ccccc32)ccc1-c1ccccc1C(F)(F)F (stereo not shown)", "testValue": 59}
{"molecule": "C=CCN1CCN(C(=O)c2ccc3n2Cc2ccccc2N(C(=O)c2ccc(-c4cccc(OC)c4)c(OC)c2)C3)CC1", "testValue": 77}
{"molecule": "COc1cc(C(=O)N2Cc3ccc(C(=O)N4CCN(C(C)C)CC4)n3Cc3ccccc32)ccc1-c1cccc2ccccc12", "testValue": 46}
{"molecule": "COc1ccccc1-c1ccc(C(=O)N2Cc3ccc(C(=O)N4CCC(N5CCCCC5)CC4)n3Cc3ccccc32)cc1OC", "testValue": 58}
{"molecule": "COc1ccccc1-c1ccc(C(=O)N2Cc3ccc(C(=O)N4CCN(CCN5CCOCC5)CC4)n3Cc3ccccc32)cc1OC", "testValue": 64}
{"molecule": "Cc1cc(C(=O)N2Cc3ccc(C(=O)N(C)C4CCN(C)CC4)n3Cc3ccccc32)ccc1-c1ccccc1C(F)(F)F", "testValue": 83}
{"molecule": "COc1cc(C(=O)N2Cc3ccc(C(=O)N4CCCN(C)CC4)n3Cc3ccccc32)ccc1-c1cccc2ccccc12", "testValue": 64}
{"molecule": "Cc1ccccc1-c1ccc(C(=O)N2Cc3ccc(C(=O)NCCN4CCCCC4)n3Cc3ccccc32)cc1", "testValue": 60}
{"molecule": "COc1cc(C(=O)N2Cc3ccc(C(=O)N4CCC(N5CCCCC5)CC4)n3Cc3ccccc32)ccc1-n1c(C)ccc1C", "testValue": 16}
{"molecule": "COc1cccc(-c2ccc(C(=O)N3Cc4ccc(C(=O)N5CCC(N6CCCCC6)CC5)n4Cc4ccccc43)cc2OC)c1", "testValue": 69}
{"molecule": "COc1ccccc1-c1ccc(C(=O)N2Cc3ccc(C(=O)NCCCN(C)C)n3Cc3ccccc32)cc1OC", "testValue": 43}
{"molecule": "COc1cc(C(=O)N2Cc3ccc(C(=O)NCCCn4ccnc4)n3Cc3ccccc32)ccc1-c1cccc2ccccc12", "testValue": 26}
{"molecule": "COc1cccc(-c2ccc(C(=O)N3Cc4ccc(C(=O)NCCN5CCCCC5)n4Cc4ccccc43)cc2C)c1", "testValue": 47}
{"molecule": "COc1cc(C(=O)N2Cc3cccn3Cc3ccccc32)ccc1-c1ccccc1C(F)(F)F [Example 19D]", "testValue": 97}
{"molecule": "COc1cccc(-c2ccc(C(=O)N3Cc4ccc(C(=O)NCCC5CCCN5C)n4Cc4ccccc43)cc2OC)c1 (stereo not shown)", "testValue": 47}
